All figures here come from patent US20240165082A1.

Test: in vitro
Details: human, pH 7.4
readoutType: Papp A→B at 120 min, 89969 μM (×10⁻⁶ cm/s)

compound="Cl.Cl.NCCc1c[nH]cn1 [histamine dihydrochloride]" unitdescriptor="×10⁻⁶ cm/s" observedresult=18.7

###

Experiment: in vitro
Details: human, pH 7.4
Recorded recovery at 120 min for the following compounds
readoutType: recovery at 120 min (%)

compound="CC(C)NCC(O)COc1ccc(CC(N)=O)cc1 (centres unmarked)" observedresult=89.1
compound="Cl.Cl.NCCc1c[nH]cn1 [histamine dihydrochloride]" observedresult=93.6
